# TESTED_ON: Rap guanine nucleotide exchange factor 3 (Homo sapiens)
# PROTOCOL_DETAILS: Counterscreen qHTS for agonist of cAMP-regulated guanine nucleotide exchange factor 3 (EPAC1) (AID 1645889); further: % of control where 0% means no effect; nearly all actives have a fitted effect of over 40% in size
# TEST_CONDITIONS: EPAC1 Rap1B-BODIPY-GDP exchange, fluorescence; series mostly up to 154 µM
Inconclusive results are not listed. Calls of active or inactive are those of the source. The call rests on the fitted dose curve; in most records, active means well fitted activation curve with a large enough effect; inconclusive means small, poorly fitted or top-dose-only effect, or another doubt; inactive means no such curve, though single readings can be large or run the other way.
MEASUREMENT_NAME: activation

> print(dat)
                                    molecule                observed.result
 1  CCN(CC)CCn1c2c(c(SCC(=O)NCc3ccccc3)nc1=O)CCCC2                       inactive
 2                   NNc1nc2c(Cl)ccc(Cl)c2s1                       inactive
 3  COc1cccc(C2=NN(C(C)=O)C(c3cccs3)C2)c1 (stereo unspecified)                       inactive
 4  Nc1c(C(=O)c2ccccc2)sc2nsc(SCCN3CCOCC3)c12                       inactive
 5  C[C@@H](c1ccccc1)N1Cc2ccccc2Oc2cc(Br)ccc2S1(=O)=O                       inactive
 6  Cc1ccc(NC(=O)CN2C(=O)N/C(=C/c3ccccc3OCc3cccc(C(=O)O)c3)C2=O)cc1  5.98% [at 30.8 µM] (inactive)
 7  Nc1c(-c2nc(-c3cccs3)no2)nnn1-c1cccc(Cl)c1                       inactive
 8  COc1ccccc1NC(=O)C(C)OC(=O)COc1cccc2c1OC(C)(C)C2 (stereo unspecified)  7.64% [at 30.8 µM] (inactive)
 9  CC(C)N(Cc1cn(C)nc1-c1cccc(Cl)c1)Cc1nccn1C    15% [at 30.8 µM] (inactive)
10  Cc1cc2[nH]c(=O)c(=O)[nH]c2cc1S(=O)(=O)Nc1cccc(Cl)c1                       inactive
11  CC(C)OC(=O)NC(c1ccccc1)C(Cl)(Cl)Cl (stereo unspecified)  7.19% [at 30.8 µM] (inactive)

* * *

# System: N140
# PROTOCOL_DETAILS: qHTS profiling for inhibitors of Plasmodium falciparum proliferation (AID 504749);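 further: 0% = DMSO vehicle and full inhibition = artemisinin control; nearly all actives have a fitted effect of over 60% in size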
# TEST_CONDITIONS: P. falciparum in erythrocytes, SYBR Green DNA, 72 h; series mostly up to 12.8 µM
# Method: NIH National Institute of Allergy and Infectious Diseases [NIAID] NIH Chemical Genomics Center [NCGC] […] Because mature erythrocytes lack DNA, only Plasmodium-derived DNA is detected. NCGC Assay Protocol Summary: The SYBR Green viability assay was adapted from a method described previously (Plouffe et al., 2008). […] The following morning, fluorescence intensity at 485(14) nm excitation and 535(25) nm emission wavelengths was measured on an EnVision (Perkin Elmer) plate reader. […]
Inconclusive results are not listed. Active and inactive are the calls of the source. Calls come from the whole dose curve; as a rule, active = well fitted inhibition curve with a large enough effect; inconclusive = small, poorly fitted or top-dose-only effect; inactive = flat fitted curve, though single readings scatter.

COMPOUND	outcome
CCN[C@@H]1C[C@H](N)[C@H](O[C@H]2OC(CN)=CC[C@H]2N)[C@@H](O)[C@H]1O[C@H]1OC[C@@](C)(O)[C@@H](NC)[C@@H]1O	inactive
C[C@@H]1O[C@H](O[C@@H]2\C=C/C=C\C=C/C=C\C[C@H](C)OC(=O)/C=C\[C@H]3O[C@@H]3C[C@H](O)C[C@]3(O)C[C@@H](O)[C@@H](C(=O)O)[C@H](C2)O3)[C@@H](O)[C@H](N)[C@@H]1O (stereo in doubt)	inactive
CCCC[C@H](CC)CN1CN(C[C@@H](CC)CCCC)CC(C)(N)C1	inactive

// data source = PubChem BioAssay (NCATS)
